The reported measurements were obtained from patent US20130012436A1.

Target: T1, human IL-23 (human, UniProt Q9NPF7 20-189; P29460 23-328)
T1 construct: also called hIL-23; human recombinant IL-23
T1 sequence (looked up) 1: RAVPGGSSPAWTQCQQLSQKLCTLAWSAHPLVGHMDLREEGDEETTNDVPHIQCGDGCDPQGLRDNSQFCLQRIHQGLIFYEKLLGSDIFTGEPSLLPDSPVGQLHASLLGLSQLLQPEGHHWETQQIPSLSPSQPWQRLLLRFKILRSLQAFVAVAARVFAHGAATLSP
T1 sequence (looked up) 2: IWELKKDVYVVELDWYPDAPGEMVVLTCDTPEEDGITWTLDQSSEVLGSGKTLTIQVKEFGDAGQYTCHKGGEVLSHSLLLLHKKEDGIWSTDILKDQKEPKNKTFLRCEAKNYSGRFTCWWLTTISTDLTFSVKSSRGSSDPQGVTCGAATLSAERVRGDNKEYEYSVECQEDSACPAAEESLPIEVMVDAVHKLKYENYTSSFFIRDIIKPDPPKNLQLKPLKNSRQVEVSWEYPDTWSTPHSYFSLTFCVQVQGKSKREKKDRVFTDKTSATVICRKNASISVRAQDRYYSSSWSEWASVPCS
Assay: SPR (ProteOn XPR), human IL-23 directly immobilized, 25 C

| binder | kon [M⁻¹ s⁻¹] |
| --- | --- |
| ATI001047 (designed binder, pegylated at the C-terminal GSGC linker (Cys)) MGVSDVPRDLEVVAATPTSLLISWGHYPLHVRYYRITYGETGGNSPVQEFTVPPRSHTATISGLKPGVDYTITVYAVTYYAQENYKEIPISINYRTGSGC | 13000 |
| ATI001014 (designed binder, pegylated at the C-terminal GSGC linker (Cys), not shown: his-tag) MGVSDVPRDLEVVAATPTSLLISWGHYPLHVRYYRITYGETGGNSPVQEFTVPPRSHTATISGLKPGVDYTITVYAVTYYAQENYKEIPISINYRTGSGC | 9400 |
| ATI001045 (designed binder, pegylated at the C-terminal GSGC linker (Cys)) MGVSDVPRDLEVVAATPTSLLISWGHYPLHVRYYRITYGETGGNSPVQEFTVPSRKYTATISGLKPGVDYTITVYAVTYYKEANYREIPISINYRTGSGC | 150000 |
| 1571G04 (designed binder, captured by anti-His mAb) MGVSDVPRDLEVVAATPTSLLISWGHYPLHVRYYRITYGETGGNSPVQEFTVPPRSHTATISGLKPGVDYTITVYAVTYYAQENYKEIPISINYRTEIDKPSQHHHHHH | 57000 |
| ATI000934 (designed binder, pegylated at the C-terminal EIDKPCQ (Cys), also called ATI 934; not shown: his-tag) MGVSDVPRDLEVVAATPTSLLISWGHYPLHLRYYRITYGETGGNSPVQEFTVPRTKYTATISGLKPGVDYTITVYAVTYYKEADYSQIPISINYRTEIDKPCQ | 9400 |
